meta.source: patent US20180362629A1

Form field: IC50, canine NGF-induced TF-1 cell proliferation (70 pM canine NGF) (one value per entry).
- measured-target: T1, recombinant canine β NGF (canine, UniProt Q29074 110-229 (pig entry))
- T1 chain: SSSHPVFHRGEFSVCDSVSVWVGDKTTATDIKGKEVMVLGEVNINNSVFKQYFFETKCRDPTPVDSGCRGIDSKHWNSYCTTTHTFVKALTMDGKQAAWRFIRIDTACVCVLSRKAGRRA
- run-description: cell-based or functional assay
# value in nM; strip the unit string

binder	readout-number
PR-1254972 (antibody, mouse IgG2b, V domains shown, also called 20B10; ML129-20B10.3F4) VH: EVHLVESGGGLVKPGGFLILSCAASGFTFSDYYMFWIRQTPGKRLEWVATISDGGSYTYYTDNVKGRFTISRDNVKNNLYLQMSHLKSADTAMYYCARDWSDSEGFAYWGQGTLVTVSA VL: DVLMTQTPLSLPVSLGDQASISCRSSQSIVQSNGNTYLEWYLQKPGQSPKLLIYKVSNRFSGVPDRFSGSGSGTDFTLKISRVEAEDLGVYYCFQGSHVPFTFGSGTKLEIKR	0.303

API: the following record is the query input.
Look up IC50, canine NGF-induced TF-1 cell proliferation (70 pM canine NGF) for this binder: PR-1254977 (antibody, mouse IgG1, V domains shown, also called 21D4; ML129-21D4.4A11) VH: EVQLQQSGAELVKPGASVKLSCTASGFNIKDTYIYWVKQRPEQGLEWIGRIDPANGNTIYASKFQGKASITADTSSNTAYMQLSSLTSGDTAVYYCAGYGYYAYWGQGTTLTVSS VL: DVVLTQTPLSLPVNIGDQASISCKSTKSLLNGDGFTYLDWYLQKPGQSPQLLIYLVSNRFSGVPDRFSGSGSGTDFTLKISRVEAEDLGVYYCFESNYLFTFGSGTKLEMKR 0.217
